Origin of values: the supplement of paper PMC12042874

- assay-text: amyloid nucleation score (Sup35N fusion, yeast selection) (log enrichment); library NNK2; higher = more nucleation; inactive = no reads after selection;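 note: zero at mode of non-aggregating sequences after 7 days selection at 30°C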

[
  {
    "sequence-record": "MCWIVTFTRLCWLMFNSERC",
    "amyloid nucleation score": "inactive"
  },
  {
    "sequence-record": "FYNRFRGFIFV",
    "amyloid nucleation score": "inactive"
  },
  {
    "sequence-record": "RMRCLDSVQGLNLIHTDVSV",
    "amyloid nucleation score": "inactive"
  }
]

###

- assay-text: amyloid nucleation score (Sup35N fusion, yeast selection) (log enrichment); library NNK2; higher = more nucleation; inactive = no reads after selection
result-type: amyloid nucleation score

[
  {
    "sequence-record": "FKILFLAHRLTGLFKSSTGF",
    "observed": "inactive"
  },
  {
    "sequence-record": "DCECGLNSWKKVT",
    "observed": "inactive"
  },
  {
    "sequence-record": "FVFLVYYFSEFIH",
    "observed": "inactive"
  }
]
